# maps each entry to its glycan array binding signal (z-score)
target: Fuc(a1-2)Gal(b1-4)[Fuc(a1-3)]GlcNAc; experiment: glycan array binding signal (z-score within array); higher = stronger binding; conditions: glycan notation: IUPAC condensed, linker removed
Only a selection was taken, and the strongest signals are over-represented in it overall.
Enter the number alone.

BINDER	glycan array binding signal (z-score)
Fap1 (Streptococcus parasanguis) (protein) KATSKGTEEKQDSVRENLDKMISEAEVLNDMAARKLITLDAEQQLELMKSLVATQSQLEATKNLIGDPNATVADLQIAYTTLGNNTQALGNELIKLNPNGQIYAVLNNTEASRAATLRSTTTGTKTTFTISDFSNGGTQYYWAGGNANNLKNPISSISAVYDSATGKISWTVEYDPTTILKSPALKTLKTYTGIYIDTSSDSKLSTPTNVLIDGAATNPVTNFYGNGSKGIEYVSKGTTKGVTKHTITFDTAFSGRANDLADLEIKMLAATTLSDPHFYEDGSKGNYGRYNGQTAPYVIANDSGTAIGGYQVSGVNADSIPSDTT	0.342

Please look at the following binder next.
Q: For the binder AFL (Aspergillus fumigatus), Q4WW81 (protein) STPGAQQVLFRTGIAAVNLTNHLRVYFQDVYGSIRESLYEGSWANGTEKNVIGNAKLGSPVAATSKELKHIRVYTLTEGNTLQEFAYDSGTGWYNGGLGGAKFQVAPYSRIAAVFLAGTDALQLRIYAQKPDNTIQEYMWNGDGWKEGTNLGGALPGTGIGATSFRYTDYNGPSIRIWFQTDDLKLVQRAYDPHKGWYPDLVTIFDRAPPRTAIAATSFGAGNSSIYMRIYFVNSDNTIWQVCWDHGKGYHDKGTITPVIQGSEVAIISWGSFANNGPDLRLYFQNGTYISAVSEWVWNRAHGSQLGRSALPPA , give its measured glycan array binding signal (z-score) value.
Ans: 4.58
